From: PubChem BioAssay

Target: Luciferin 4-monooxygenase (Photinus pyralis)
Experiment: inhibition of purified Photinus pyralis luciferase – biochemical, luminescence, purified enzyme, 2006 set, primary screen (AID 1141);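 further: cell-free assay with purified firefly luciferase at 100 ng per well in PBS; test concentration not given here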
Details: purified firefly luciferase, SteadyGlo luminescence, 30 min; higher = more signal, called active from +8 up or from −8 down
Record 1 (yes) whenever z-score is at 0.4 or higher; record 0 (no) when lower.

Consider the worked cases shown below.
molecule	target_entity	answer_label
CCOC(=O)C1=C[C@@H](C(C)(C)C)N(S(=O)(=O)c2ccc(C)cc2)[C@H]1c1ccc(Cl)c(Cl)c1	Luciferin 4-monooxygenase (Photinus pyralis)	1 (yes)
CC(=O)n1cc(C(O)C2C=CC3C(=O)N(c4ccccc4)C(=O)C3N2Nc2ccc(C#N)cc2)c2ccccc21 (configuration not stated)	Luciferin 4-monooxygenase (Photinus pyralis)	0 (no)

Now let's try a different one.
Prompt: Please check the record CC1CC/C=C\[C@H]2OC34C=CCN(Cn5nnc6ccccc65)C(=O)[C@H]3N(CCCO)C(=O)[C@@H]4C2C(=O)O1 (some centres not stated) and state if its z-score is at or above 0.4.
Completion: 1 (yes)
